read-out: Monokine induced gamma interferon (MIG), CXCL9 (gene 4283); assay: BSK_hDFCGF_MIG: BioMAP Diversity Plus: hDFCGF Assay for Monokine induced gamma interferon (MIG) Biomarker Activity (AID 2283063); details: primary human foreskin fibroblasts; actives raise or lower the signal
The source made the active and inactive calls. How the source made its calls: active means hit-call score of the fitted dose curve at least 0.9, where 1 is the maximum; inactive means score below 0.9.
Thanks in advance; please answer with one of these: active, inactive

{"compound": "C=CCCCCCCCCC=O", "assigned-label": "inactive"}

Qu. Assay result, entry CCCCCC1=CCCC1=O — outcome?
Ans. inactive

Qu. Hey, what did the test say about CC(C)[N+](C)(CCOC(=O)C1c2ccccc2Oc2ccccc21)C(C)C ?
Ans. inactive

Qu. Name the outcome recorded for CCCCCCC=O in the assay.
Ans. inactive

Qu. For Nc1nc(N)nc(-c2ccccc2)n1 , which call appears in the assay record?
Ans. inactive

Qu. Status in this test for CCNc1nc(NC(C)(C)C)nc(OC)n1 ?
Ans. inactive

Qu. What outcome does the record of this test show for Oc1ccccc1Cc1ccccc1O ?
Ans. inactive

Qu. I'd appreciate the recorded outcome for Nc1cccc(N)n1 from this test.
Ans. inactive

Qu. Dear all, I need the recorded test outcome for COC(OC)(C(=O)c1ccccc1)c1ccccc1 , thank you.
Ans. inactive

Qu. What did the test return for CCN1CN(CC)CN(CC)C1 ?
Ans. inactive

Qu. Test call for this compound, please: C=CC(=O)OCCCCCCCC(C)C
Ans. active

Qu. Please share the test call associated with C=C(C)C(=O)OCCCCCCCCCCCC .
Ans. inactive

Qu. What outcome does the record of this test show for C=CC(=O)OCC(C)OCC(C)OCC(C)OC(=O)C=C (configuration not stated) ?
Ans. active

Qu. Recorded test outcome, item CC(C)c1cccc(C(C)C)c1N
Ans. inactive

Qu. Hey, what did the test say about C1CNCCN1 ?
Ans. inactive

Qu. Answer briefly: the call reported for Cc1c(O)cccc1O in this assay.
Ans. inactive

Qu. // outcome(item) with item = Cc1ccc([N+](=O)[O-])cc1N
Ans. inactive

Qu. I would be grateful if you could indicate the recorded call for Clc1cc(Cl)c(Cl)c(Cl)c1Cl .
Ans. inactive

Qu. Fill in: this test's call for Oc1c(Cl)cc(Cl)c(Cl)c1Cl is ___
Ans. inactive

Qu. Answer briefly: the call reported for CC=C(C)C=CC=C(C)C in this assay.
Ans. inactive

Qu. How was COc1ccc(C(=O)c2ccccc2)c(O)c1 classified in this test?
Ans. inactive

Qu. Assay result, entry CC1(C)CC(O)CC(C)(C)N1[O] — outcome?
Ans. inactive

====

assay: ATG_GATA_CIS: Attagene CIS-FACTORIAL HepG2 Assay for human GATA Binding Protein (AID 2282944); conditions: HepG2 GATA cis-element reporter, Attagene multiplex mRNA; actives raise or lower the signal
Calls of active or inactive are those of the source. The calls were made as follows: active = hit-call score of the fitted dose curve at least 0.9, where 1 is the maximum; inactive = score below 0.9.
Mark one answer only. Choices: TRUE for active, FALSE for inactive

Below are worked cases with known answers.
{"compound": "O=C(Oc1ccccc1)c1ccccc1O", "assigned-label": "FALSE"}
{"compound": "Cc1cccc(C(C)(C)C)c1O", "assigned-label": "FALSE"}
{"compound": "C=CC(=O)OCC(C)OCC(C)OCC(C)OC(=O)C=C (configuration not stated)", "assigned-label": "FALSE"}
{"compound": "CC(C=O)c1ccccc1 (configuration not stated)", "assigned-label": "FALSE"}

Qu. // param item: CCCCCCCCCCCCC ; yields the recorded call
Ans. FALSE

Qu. Look up the recorded call for CC=CC(=O)OCC(C)C in this test.
Ans. FALSE

Qu. What did this assay record as the result for CC1(C)[C@@H]2CC[C@@]1(C)C(=O)C2 ?
Ans. FALSE

Qu. Test call, this compound: O=C1CCCN1C1CCCCC1
Ans. FALSE

Qu. Called result for CC(=O)OCCc1ccccc1
Ans. FALSE

Qu. Each compound tested received a call. Report the one for CC(=O)CCC=C(C)C .
Ans. FALSE

Qu. I would be grateful if you could indicate the recorded call for Nc1ccnc(=O)[nH]1 .
Ans. FALSE

Qu. Test call, this compound: CC1CCC(=O)C1=O (configuration not stated)
Ans. FALSE

====

assay: BSK_SAg_PBMCCytotoxicity: PBMC Cytotoxicity Assessment in the BioMAP Diversity Plus: SAg Assay (AID 2283093); settings: primary human HUVEC with PBMC;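 further: PBMC viability measured as Alamar Blue reduction fluorescence at 546/580 nm; fitted both ways against DMSO so a hit may be loss or gain of signal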
Active and inactive are the calls of the source. The calls were made as follows: active = hit-call score of the fitted dose curve at least 0.9, where 1 is the maximum; inactive = score below 0.9.

{"structure-smiles-string": "CC1(C)CC(O)CC(C)(C)N1[O]", "outcome": "inactive"}
{"structure-smiles-string": "C=CCCCCCCCCC=O", "outcome": "inactive"}
{"structure-smiles-string": "Cc1ccc([N+](=O)[O-])cc1N", "outcome": "inactive"}

====

assay: ACEA_AR_antagonist_AUC_viability: ACEA Biosciences xCELLigence Real-Time Cell Analysis on Androgen Receptor Antagonism for Viability (AID 2283776);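 further: 22Rv1 human prostate cancer cells growing on impedance electrode plates; area under impedance growth curve at 80 h after dosing as viability; hits lower the growth signal relative to DMSO meaning cytotoxicity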
Inconclusive results are not listed. The source made the active and inactive calls. The calls were made as follows: active = hit-call score of the fitted dose curve at least 0.9, where 1 is the maximum; inconclusive = response in the unintended direction; inactive = score below 0.9.
Field 'call' accepts active, inactive

Please review the entries below; each comes with its answer.
{"compound": "O=C(OCCc1ccccc1)c1ccccc1", "assigned-label": "inactive"}
{"compound": "O=C(Nc1ccccc1)c1cc(Cl)ccc1O", "assigned-label": "active"}
{"compound": "Oc1ccc(-c2ccccc2)c(Cl)c1", "assigned-label": "active"}

Qu. Just curious, what result did CCC(C)(O)CCCC(C)C (configuration not stated) get here?
Ans. inactive

Qu. // return assay outcome for CCCCCCCCCCCCc1ccc(O)cc1
Ans. active

Qu. Call for entry CCC1COC(=O)O1 (configuration not stated) :
Ans. inactive

Qu. For COc1ccc(C(=O)c2ccccc2)c(O)c1 , what call appears in the results of this test?
Ans. inactive

====

read-out: urokinase plasminogen activator (uPA), PLAU (gene 5328); experiment: BSK_KF3CT_uPA: BioMAP Diversity Plus: KF3CT Assay for urokinase plasminogen activator (uPA) Biomarker Activity (AID 2283075); details: primary human keratinocytes with fibroblasts; actives raise or lower the signal
Calls of active or inactive are those of the source. Rule for the calls: active = hit-call score of the fitted dose curve at least 0.9, where 1 is the maximum; inactive = score below 0.9.
Result category, one only: active, inactive

{"molecule": "O=C1CCCCCCCCCCCN1", "assigned-label": "inactive"}
{"molecule": "O=C(Oc1ccccc1)c1ccccc1C(=O)Oc1ccccc1", "assigned-label": "inactive"}
{"molecule": "CCCC(C)C(=O)OCC (stereo not given)", "assigned-label": "inactive"}
{"molecule": "Cc1ccc([N+](=O)[O-])cc1N", "assigned-label": "inactive"}
{"molecule": "C=CC(=O)OCCCCCCOC(=O)C=C", "assigned-label": "active"}
{"molecule": "CC=C(C)C(C)=O", "assigned-label": "inactive"}
{"molecule": "C=CC(=O)OCCCCCCCC(C)C", "assigned-label": "inactive"}
{"molecule": "Clc1cc(Cl)c(Cl)c(Cl)c1Cl", "assigned-label": "inactive"}

Qu. # lookup: test call for CCc1cccc(C)c1N(C(=O)CS(=O)(=O)O)C(C)COC (stereo not given)
Ans. inactive

Qu. Outcome? CC(CCC(=O)O)(c1ccc(O)cc1)c1ccc(O)cc1
Ans. inactive

Qu. Record lookup: outcome of this test for CC(C)c1cccc(C(C)C)c1N ?
Ans. inactive

Qu. Could you kindly confirm the outcome this assay logged for O=C(O)C(F)(F)C(F)(F)C(F)(F)C(F)(F)C(=O)O ?
Ans. inactive

Qu. For this molecule, state the assay outcome: Fc1ccc(Br)cc1
Ans. inactive

Qu. Any idea what this test logged for CC(c1cc(C(C)(C)C)cc(C(C)(C)C)c1O)c1cc(C(C)(C)C)cc(C(C)(C)C)c1O ?
Ans. inactive

Qu. // return assay outcome for COC(OC)(C(=O)c1ccccc1)c1ccccc1
Ans. inactive

====

system: Sodium/Iodide Symporter (NIS), SLC5A5 (gene 6528); assay: CPHEA_Stoker_NIS_Inhibition_RAIU: CPHEA's Radioactive Iodide Uptake (RAIU) Assay for Sodium/Iodide Symporter (NIS) Inhibition, Stoker and Laws Labs (AID 2283841)
Inconclusive results are not listed. Calls of active or inactive are those of the source. Rule for the calls: active = hit-call score of the fitted dose curve at least 0.9, where 1 is the maximum; inconclusive = response in the unintended direction; inactive = score below 0.9.
quantity-kind: outcome

{"structure-smiles-string": "O=C(O)c1cc(O)c2ccccc2c1O", "reported-value": "inactive"}
{"structure-smiles-string": "O=C(OCCc1ccccc1)c1ccccc1", "reported-value": "inactive"}
{"structure-smiles-string": "Cc1ccc([N+](=O)[O-])cc1N", "reported-value": "inactive"}

====

molecular target: Nuclear receptor subfamily 1 group I member 2 (Homo sapiens); assay: ATG_PXR_TRANS: Attagene TRANS-FACTORIAL HepG2 Assay for human Pregnane X Receptor (PXR) (AID 2283008)
Records with an inconclusive call do not appear. The source made the active and inactive calls. Rule for the calls: active = hit-call score of the fitted dose curve at least 0.9, where 1 is the maximum; inconclusive = response in the unintended direction; inactive = score below 0.9.
quantity-kind: AC50

Solved cases (4 shown):
{"compound": "CCCCC(CC)COC(=O)/C=C/c1ccc(OC)cc1 (stereo unspecified)", "measured-target": "Nuclear receptor subfamily 1 group I member 2 (Homo sapiens)", "AC50": "inactive"}
{"compound": "CC(C)c1ccc2ncccc2c1", "measured-target": "Nuclear receptor subfamily 1 group I member 2 (Homo sapiens)", "AC50": "21.4 µM (active)"}
{"compound": "COC(C=C(C)CCC=C(C)C)OC", "measured-target": "Nuclear receptor subfamily 1 group I member 2 (Homo sapiens)", "AC50": "inactive"}
{"compound": "O=C1CCCCC1C1CCCCC1 (stereo unspecified)", "measured-target": "Nuclear receptor subfamily 1 group I member 2 (Homo sapiens)", "AC50": "41.2 µM (active)"}

Qu. Look up AC50 for this compound: O=C(Cl)c1c(Cl)c(Cl)c(C(=O)Cl)c(Cl)c1Cl
Ans. inactive

Qu. Request the reported AC50 associated with COC(=O)CC(C)CCC=C(C)C (stereo unspecified)
Ans. inactive

Qu. I'd like to know its AC50. The compound in question is C=CC(=O)OCCCCCCCCCC
Ans. inactive

Qu. Any idea what AC50 was measured for CCCCCCCCCCCCCc1ccccc1 ?
Ans. inactive
